log2 fold change of degron read counts listing for selected sequences.
Target: T1, CRBN, Q96SW2;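 further: pooled lentiviral library of zinc finger degron-EGFP fusions in mCherry-positive Jurkat cells, FACS-sorted after compound exposure, with degron abundance counted by next-generation sequencing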
T1 chain: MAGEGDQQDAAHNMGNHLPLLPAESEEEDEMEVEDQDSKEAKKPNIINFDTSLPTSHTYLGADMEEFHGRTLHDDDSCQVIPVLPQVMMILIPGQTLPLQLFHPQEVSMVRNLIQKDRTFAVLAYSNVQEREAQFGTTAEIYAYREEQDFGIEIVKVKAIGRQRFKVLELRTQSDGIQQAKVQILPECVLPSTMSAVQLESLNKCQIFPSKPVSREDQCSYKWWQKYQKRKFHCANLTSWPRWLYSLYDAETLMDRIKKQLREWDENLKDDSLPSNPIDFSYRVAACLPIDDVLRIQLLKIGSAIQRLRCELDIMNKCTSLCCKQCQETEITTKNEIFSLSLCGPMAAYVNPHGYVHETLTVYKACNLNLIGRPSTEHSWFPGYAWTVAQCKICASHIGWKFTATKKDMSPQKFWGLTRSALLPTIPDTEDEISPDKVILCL
Experiment: log2 fold change of degron read counts, EGFP-low vs EGFP+ sorted cells (limma voom), compound-induced degradation; higher = more compound-induced degradation of the degron-EGFP fusion; degrons are variants of IKZF1/3 zinc finger 2; compound dose not given here
Conditions: Jurkat; 18 h; compound: compound 19 (5-tert-butyl-thalidomide)
In all, about 8,300 sequences were measured (“log2 fold change of degron read counts, EGFP-low vs EGFP+ sorted cells (limma voom), compound-induced degradation”: median about -1.1, highest 2% from about 3.2 on). The sample as a whole holds a higher share of the highest values than the screen did.

{"columns": ["macromolecule_sequence", "log2 fold change of degron read counts"],
 "data": [
  ["FSCEICGAHFTQKGNLLRHIKL [46F_47S_49E_50I_52G_53A_54H_55F_67L_, Q9UKT9]", 2.47],
  ["FKCEICGAQFTQKGNLLRHIKL [46F_47K_49E_50I_52G_53A_54Q_55F_67L_, Q9UKT9]", 0.105],
  ["FNCEICGAQFTQKGNLLRHIKL [46F_47N_49E_50I_52G_53A_54Q_55F_67L_, Q9UKT9]", 2.88],
  ["FDCEICGAHFTQKGNLLRHIKL [46F_47D_49E_50I_52G_53A_54H_55F_67L_, Q9UKT9]", 3.28],
  ["FCCEICGAQFTQKGNLLRHIKL [46F_47C_49E_50I_52G_53A_54Q_55F_67L_, Q9UKT9]", 3.18],
  ["FGCEICGAQFTQKGNLLRHIKL [46F_47G_49E_50I_52G_53A_54Q_55F_67L_, Q9UKT9]", 3.48]
]}

Below: the item to evaluate.
Task item: Param item = FVCEICGAHFTQKGNLLRHIKL [46F_47V_49E_50I_52G_53A_54H_55F_67L_, Q9UKT9] ; retrieve measured log2 fold change of degron read counts.
Reply: 0.302
